The reported measurements were obtained from ChEMBL document CHEMBL1139387.

Please go through the items and note down their IC50.
study system: Cyclin-dependent kinase 2 (Homo sapiens, UniProt P24941)
protocol notes: Inhibition of CDK2/Cyclin A

// worked examples, IC50 included
- record smiles: "c1ccc2[nH]c(-c3cc[nH]n3)nc2c1"
  study system: "Cyclin-dependent kinase 2 (Homo sapiens, UniProt P24941)"
  IC50: "28000 nM"
- record smiles: "CC(=O)Nc1c[nH]nc1-c1nc2ccccc2[nH]1"
  study system: "Cyclin-dependent kinase 2 (Homo sapiens, UniProt P24941)"
  IC50: "990 nM"
- record smiles: "O=C(Nc1ccccc1F)Nc1c[nH]nc1-c1nc2cc(CN3CCOCC3)ccc2[nH]1"
  study system: "Cyclin-dependent kinase 2 (Homo sapiens, UniProt P24941)"
  IC50: "230 nM"

Looking for the measured IC50 of O=C(Nc1c[nH]nc1-c1nc2cc(CN3CCOCC3)ccc2[nH]1)Nc1c(F)cccc1F , can you help?
160 nM
